# Target desc: EZH2 Mutant Y641N (Homo sapiens (Human), UniProt Q15910, Y641N)
# Sequence (Q15910 whole entry Y641N, looked up): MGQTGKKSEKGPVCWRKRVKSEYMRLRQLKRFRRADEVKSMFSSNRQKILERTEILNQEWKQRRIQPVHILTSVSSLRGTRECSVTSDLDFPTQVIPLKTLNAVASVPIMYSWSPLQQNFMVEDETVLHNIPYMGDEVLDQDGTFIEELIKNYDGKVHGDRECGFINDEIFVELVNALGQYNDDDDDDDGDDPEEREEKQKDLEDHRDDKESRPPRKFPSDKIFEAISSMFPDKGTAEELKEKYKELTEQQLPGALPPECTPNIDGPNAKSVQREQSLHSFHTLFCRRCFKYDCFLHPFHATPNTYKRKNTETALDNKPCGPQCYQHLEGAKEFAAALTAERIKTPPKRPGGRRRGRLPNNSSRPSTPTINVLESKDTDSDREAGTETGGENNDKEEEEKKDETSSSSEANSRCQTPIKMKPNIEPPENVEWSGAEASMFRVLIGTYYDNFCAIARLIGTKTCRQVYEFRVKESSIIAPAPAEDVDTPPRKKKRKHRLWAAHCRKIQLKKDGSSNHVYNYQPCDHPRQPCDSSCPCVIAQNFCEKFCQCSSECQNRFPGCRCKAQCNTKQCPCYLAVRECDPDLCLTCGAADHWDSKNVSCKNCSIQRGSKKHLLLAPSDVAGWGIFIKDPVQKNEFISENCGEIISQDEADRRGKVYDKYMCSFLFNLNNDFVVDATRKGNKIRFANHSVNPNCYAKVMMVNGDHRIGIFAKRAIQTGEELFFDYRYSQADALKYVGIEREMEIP
# Sequence (O75530 whole entry partner, looked up): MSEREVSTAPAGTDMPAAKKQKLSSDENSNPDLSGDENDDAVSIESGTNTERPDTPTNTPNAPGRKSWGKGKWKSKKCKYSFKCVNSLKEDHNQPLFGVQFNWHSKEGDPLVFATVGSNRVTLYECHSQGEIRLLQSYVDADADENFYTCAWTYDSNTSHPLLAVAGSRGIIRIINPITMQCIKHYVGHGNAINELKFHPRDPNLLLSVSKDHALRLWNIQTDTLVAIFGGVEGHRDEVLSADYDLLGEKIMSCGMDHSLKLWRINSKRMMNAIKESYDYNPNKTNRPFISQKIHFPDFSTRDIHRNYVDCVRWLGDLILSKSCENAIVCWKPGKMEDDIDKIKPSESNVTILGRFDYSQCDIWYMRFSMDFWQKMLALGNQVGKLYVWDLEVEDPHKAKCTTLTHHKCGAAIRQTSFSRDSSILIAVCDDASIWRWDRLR
# Sequence (Q15022 whole entry partner, looked up): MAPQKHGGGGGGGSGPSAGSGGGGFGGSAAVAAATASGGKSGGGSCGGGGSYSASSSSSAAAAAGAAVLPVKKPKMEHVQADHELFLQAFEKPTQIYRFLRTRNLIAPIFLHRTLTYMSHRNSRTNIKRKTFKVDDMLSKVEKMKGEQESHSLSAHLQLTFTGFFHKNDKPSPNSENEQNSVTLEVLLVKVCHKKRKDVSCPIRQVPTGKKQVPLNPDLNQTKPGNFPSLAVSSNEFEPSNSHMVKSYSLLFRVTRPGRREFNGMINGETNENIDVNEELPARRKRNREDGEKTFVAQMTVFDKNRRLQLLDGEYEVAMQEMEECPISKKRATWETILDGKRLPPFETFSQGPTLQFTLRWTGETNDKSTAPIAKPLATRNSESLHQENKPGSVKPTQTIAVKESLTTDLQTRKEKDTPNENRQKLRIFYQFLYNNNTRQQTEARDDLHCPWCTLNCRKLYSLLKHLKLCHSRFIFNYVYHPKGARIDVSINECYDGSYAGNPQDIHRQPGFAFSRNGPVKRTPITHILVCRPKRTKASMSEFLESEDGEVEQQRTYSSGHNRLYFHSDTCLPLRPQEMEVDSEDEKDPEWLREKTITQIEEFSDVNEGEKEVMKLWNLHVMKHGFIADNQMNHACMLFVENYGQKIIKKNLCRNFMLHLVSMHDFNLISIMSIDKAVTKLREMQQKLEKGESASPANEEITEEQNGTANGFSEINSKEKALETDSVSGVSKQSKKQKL
# Sequence (Q09028 whole entry partner, looked up): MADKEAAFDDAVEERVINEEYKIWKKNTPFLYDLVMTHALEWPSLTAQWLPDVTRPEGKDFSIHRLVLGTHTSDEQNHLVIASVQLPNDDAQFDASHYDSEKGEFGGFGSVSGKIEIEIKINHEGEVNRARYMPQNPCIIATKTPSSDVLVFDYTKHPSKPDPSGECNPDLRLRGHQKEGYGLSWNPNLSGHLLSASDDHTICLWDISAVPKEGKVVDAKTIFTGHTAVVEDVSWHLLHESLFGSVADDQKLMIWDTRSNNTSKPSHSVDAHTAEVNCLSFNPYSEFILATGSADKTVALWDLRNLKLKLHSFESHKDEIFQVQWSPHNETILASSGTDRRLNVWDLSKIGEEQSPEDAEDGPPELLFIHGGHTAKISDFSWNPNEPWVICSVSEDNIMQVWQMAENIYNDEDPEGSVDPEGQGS
# Measurement description: EZH2 Mutant Y641N nucleosome assay
# Type: biochemical
# Applied conditions: PRC2 4-protein complex 6 nM, 1.5 μM SAM, HeLa oligonucleosomes; read-out: EZH2 Mutant Y641N Nucleosome assay IC50
Value type: IC50 (nM)
Could you give me the number in nM? Just the number is fine.

>  <Molecule>
Cc1cc(C)c(CN2CCc3c(Cl)cc([C@H](C)CO)c(Cl)c3C2=O)c(=O)[nH]1 [Example 18]

>  <Target desc>
EZH2 Mutant Y641N (Homo sapiens (Human), UniProt Q15910, Y641N)

>  <Value type>
IC50

>  <Display unit>
nM

>  <Value>
995

$$$$
>  <Molecule>
COC(c1cc(Br)c2c(c1Cl)C(=O)N(Cc1c(C)cc(C)[nH]c1=O)CC2)C1CN(C(=O)CO)C1 (single isomer, unassigned) [Example 138]

>  <Target desc>
EZH2 Mutant Y641N (Homo sapiens (Human), UniProt Q15910, Y641N)

>  <Value type>
IC50

>  <Display unit>
nM

>  <Value>
249

$$$$
>  <Molecule>
Cc1cc(C)c(CN2CCc3c(Cl)cc(C(C)C4CN(C)C4)c(Cl)c3C2=O)c(=O)[nH]1 (single isomer, unassigned) [Example 187]

>  <Target desc>
EZH2 Mutant Y641N (Homo sapiens (Human), UniProt Q15910, Y641N)

>  <Value type>
IC50

>  <Display unit>
nM

>  <Value>
10

$$$$

Data request: Given the molecule Cc1cc(C)c(CN2CCc3ccc(C(CO)C4CCOC4)c(Cl)c3C2=O)c(=O)[nH]1 (single isomer, unassigned) [Example 98] , what is its reported IC50?
Data returned: 8720

Data request: Find the recorded IC50 belonging to Cc1cc(C)c(CN2CCc3c(Cl)cc(C([C@H](C)O)[C@@H](C)O)c(Cl)c3C2=O)c(=O)[nH]1 (single isomer, unassigned) [Example 42] and report it.
Data returned: 102

Data request: IC50 for COC(CO)c1cc(Cl)c2c(c1Cl)C(=O)N(Cc1c(C)cc(C)[nH]c1=O)CC2 (single isomer, unassigned) [Example 10] ?
Data returned: 1980

Just for reference, patent US10570121B2 is where these values come from.
